Recorded values, source ChEMBL document CHEMBL4602607.

Please go through the items and note down their Kp at 0.5 h.
Experiment: Ratio of drug concentration in brain to blood in NMRI mouse at 10 mg/kg, ip measured at 0.5 hrs by LC-MS/MS analysis
Type: ADME, organism-based
Details: brain and blood, read-out: BBR
Numbers only.

CCOc1cc(-c2ccnc(N)n2)cc2[nH]nc(N)c12: 0.155

Please turn your attention to the following entry.
Return reported Kp at 0.5 h; argument: Cn1nc2c3c(cc(-c4ccnc(N)n4)cc31)Oc1ccccc1N2 2.39

----------
Assay: Intrinsic clearance in rat hepatocytes assessed per 10^6 cells by LC-MS/MS analysis
Type: ADME, cell-based, Hepatocyte
Class 1: hepatocyte CLint at least 30 µL/min/10^6 cells. Class 0: hepatocyte CLint below 30 µL/min/10^6 cells.

These recorded examples may help you get a feel for the data.
CN1CCN(c2cc(-c3cc4c5c(n[nH]c5c3)Nc3ccccc3O4)nc(N)n2)CC1: 0
Nc1nc(-c2cc3c4c(n[nH]c4c2)Nc2ccccc2O3)cc(N2CCCCC2)n1: 0
Nc1ccnc(-c2cc3c4c(n[nH]c4c2)Nc2ccccc2O3)n1: 1
c1ccc2c(c1)Nc1n[nH]c3cc(-c4ccncn4)cc(c13)O2: 1
CN(C)c1cc(-c2cc3c4c(n[nH]c4c2)Nc2ccccc2O3)nc(N)n1: 1
COCc1cc(-c2cc3c4c(n[nH]c4c2)Nc2ccccc2O3)nc(N)n1: 1
Cn1nc2c3c(cc(-c4ccnc(N)n4)cc31)Oc1ccccc1N2: 0
Nc1cccc(-c2cc3c4c(n[nH]c4c2)Nc2ccccc2O3)n1: 1
CN(C)c1nccc(-c2cc3c4c(n[nH]c4c2)Nc2ccccc2O3)n1: 0
Nc1cc(-c2cc3c4c(n[nH]c4c2)Nc2ccccc2O3)ncn1: 1

Test whether the molecule c1ccc2c(c1)Nc1n[nH]c3cccc(c13)O2 records hepatocyte CLint of 30 µL/min/10^6 cells or higher. 1

Now give it for CNc1cc(-c2cc3c4c(n[nH]c4c2)Nc2ccccc2O3)nc(N)n1 too. 1

Now give it for CNc1nccc(-c2cc3c4c(n[nH]c4c2)Nc2ccccc2O3)n1 too. 1

Now give it for CCNc1cc(-c2cc3c4c(n[nH]c4c2)Nc2ccccc2O3)nc(N)n1 too. 0

Now give it for CC(C)Nc1cc(-c2cc3c4c(n[nH]c4c2)Nc2ccccc2O3)nc(N)n1 too. 1

----------
Experiment: Distribution coefficient, logD of compound
Type: physicochemical
Conditions: octanol/water
Please go through the items and note down their logD.
One number for each entry.

CCOc1cc(-c2ccnc(N)n2)cc2[nH]nc(N)c12: 1.7

Return reported logD; argument: CNc1nccc(-c2cc3c4c(n[nH]c4c2)Nc2ccccc2O3)n1 3.8
